Experiment: Kinetic aqueous solubility of the compound in PBS incubated for 2 hrs under mild shaking at pH 7.4 by UV- vis spectrophotometric analysis
Type: physicochemical
Conditions: read-out: Kinetic_solubility
Response key: 1 (yes) means solubility kinetic at 2 h >= 30 µM; 0 (no) means solubility kinetic at 2 h < 30 µM.

| Compound | Class label |
| --- | --- |
| Cc1c(C)c2ccc(OCC3CCN(CCCO)CC3)cc2oc1=O | 1 (yes) |
| Cc1c(C)c2ccc(OCC3CCN(CCCC(F)F)CC3)cc2oc1=O | 1 (yes) |
| Cc1c(C)c2ccc(OCC3CCN(Cc4cccc(F)c4)CC3)cc2oc1=O | 0 (no) |
| CN(CCCC(F)F)Cc1ccc(COc2ccc3c(CO)cc(=O)oc3c2)cc1 | 1 (yes) |
| Cc1c(C)c2ccc(OCc3ccc(CN(C)CCCC(F)F)cc3)cc2oc1=O | 0 (no) |
| CN(Cc1ccc(COc2ccc3c(CO)cc(=O)oc3c2)cc1)Cc1cccc(F)c1 | 0 (no) |
| Cc1c(C)c2ccc(OCC3CCN(Cc4ccccc4)CC3)cc2oc1=O | 1 (yes) |
| Cc1c(C)c2ccc(OCCCN(Cc3cccc(F)c3)C(C)C)cc2oc1=O | 0 (no) |
| Cc1c(C)c2ccc(OCC3CCCN(Cc4cccc(F)c4)C3)cc2oc1=O (racemic) | 0 (no) |
| Cc1c(C)c2ccc(OCC3CCCN(CCCO)C3)cc2oc1=O (racemic) | 1 (yes) |
| Cc1c(C)c2ccc(OCC3CCCN(Cc4ccccc4)C3)cc2oc1=O (racemic) | 1 (yes) |
| CCN(CCCOc1ccc2c(C)c(C)c(=O)oc2c1)Cc1cccc(F)c1 | 0 (no) |
| Cc1c(C)c2ccc(OCC3CCN(Cc4cccc(C(F)(F)F)c4)CC3)cc2oc1=O | 0 (no) |
| CN(CCCO)Cc1ccc(COc2ccc3c(CO)cc(=O)oc3c2)cc1 | 1 (yes) |
| Cc1c(C)c2ccc(OCC3CCCN(CCCC(F)F)C3)cc2oc1=O (racemic) | 1 (yes) |
| Cc1c(C)c2ccc(OCc3cccc(CN(C)CCCC(F)F)c3)cc2oc1=O | 0 (no) |
| CN(Cc1ccccc1)Cc1ccc(COc2ccc3c(C(F)F)cc(=O)oc3c2)cc1 | 0 (no) |

* * *

Assay: Apparent permeability across apical to basolateral side in human Caco-2 cells at 10 uM incubated for 60 mins by HPLC-MS/MS method
Format: ADME, cell-based
Property label: Papp A→B at 1 h, 10 µM (nm/s)

| Compound structure | Measured result |
| --- | --- |
| CN(CCCC(F)F)Cc1ccc(COc2ccc3c(CO)cc(=O)oc3c2)cc1 | 250 |
| Cc1c(C)c2ccc(OCC3CCN(CCCC(F)F)CC3)cc2oc1=O | 170 |
| Cc1c(C)c2ccc(OCC3CCN(CCCO)CC3)cc2oc1=O | 190 |
| Cc1c(C)c2ccc(OCC3CCN(Cc4ccccc4)CC3)cc2oc1=O | 70 |

* * *

Molecular target: Cholinesterase (Equus caballus)
Experiment: Inhibition of horse serum BChE at 10 uM by Ellman's spectrophotometric assay
Type: cell-free
Respond with YES for inhibition values of 20% and above, NO for values below.

| Compound | Class label |
| --- | --- |
| CN(CCCO)Cc1ccc(COc2ccc3c(CO)cc(=O)oc3c2)cc1 | YES |
| CN(CCCC(F)F)Cc1ccc(COc2ccc3c(CO)cc(=O)oc3c2)cc1 | YES |
| Cc1c(C)c2ccc(OCCCN(Cc3cccc(F)c3)C(C)C)cc2oc1=O | YES |
| Cc1c(C)c2ccc(OCC3CCN(CCCC(F)F)CC3)cc2oc1=O | NO |
| Cc1c(C)c2ccc(OCC3CCN(Cc4cccc(C(F)(F)F)c4)CC3)cc2oc1=O | YES |
| Cc1c(C)c2ccc(OCC3CCCN(CCCC(F)F)C3)cc2oc1=O (racemic) | YES |
